As shown below, each of these compounds has a reported ED50 value.
system: Mus musculus; assay: Narcotic antagonist activity in sc dosed mouse assessed as reversal of oxymorphone-induced straub tail response administered 10 mins before oxymorphone challenge; format: functional; conditions: Mus musculus, sc; read-out: ED50

Input CN1CC[C@]23CCCO[C@H]2[C@H]1Cc1ccc(O)cc13 . Output ED50: > 40 mg/kg

Input C=CCC12CCN(C)C(Cc3ccc(O)cc31)[C@@H]2O (some centres undefined) . Output ED50: > 40 mg/kg

Input CC(C)=CCN1CC[C@]23CCCO[C@@]2(C)[C@H]1Cc1ccc(O)cc13 . Output ED50: > 40 mg/kg

Proceed to the following item.
Input CN1CC[C@]23CCCO[C@@H]2[C@H]1Cc1ccc(O)cc13 . Output ED50: > 40 mg/kg
